- Test system: L1210 leukemia ip in BDF1 mice, survival T/C
- PROTOCOL_DETAILS: NCI In Vivo Anticancer Drug Screen. Data for tumor model L1210 Leukemia (intraperitoneal) in B6D2F1 (BDF1) mice
- CONDITION_PARAMETERS: endpoint: mean survival time; dose: 200.0 mg/kg/injection; schedule: Q04DX003 (ip); vehicle: Klucel (hydroxypropylcellulose) (HPC); higher = longer survival
Toxic doses and inconclusive results are not listed.
Recorded T/C by entry
METRIC: T/C

1) CCOC(=O)CC(N)C(=O)OCC (stereo unspecified): 100 % of control
2) CC1=CC(=O)C2COc3c2c1cc1c(C)cc(=O)n(C)c31 (stereo unspecified): 97 % of control
3) CCC(CO)Nc1nc2c(Cl)cc(Cl)cc2c2ccccc12 (stereo unspecified): 100 % of control
4) O=C1C(=O)c2ccccc2-c2ccccc21: 98 % of control
5) CN(C)C1CCCCC1: 101 % of control
6) O=C(O)CNc1ccccc1C(=O)O: 97 % of control
7) NC(=O)NCCc1ccccc1: 97 % of control
8) O=C(NC(=O)C(Cl)Cl)Nc1cccc2c1Cc1ccccc1-2: 100 % of control
9) O=C(COc1ccc(Cl)c(Cl)c1)N(Cc1ccccc1)Cc1cccnc1: 96 % of control
10) O=C(/C=C(\C(=O)c1ccccc1)c1ccccc1)c1ccccc1: 102 % of control
11) COc1ncnc2nc[nH]c12: 105 % of control
12) COc1cc(C=Nc2ccccc2)cc(OC)c1OC: 102 % of control
13) CC(C)(C)c1cc(/C=N/NC(=O)CCCCCCCCC(=O)N/N=C/c2cc(C(C)(C)C)c(O)c(C(C)(C)C)c2)cc(C(C)(C)C)c1O: 110 % of control
14) O=C(CN1CCCCC1)Nc1cccc(C(F)(F)F)c1: 98 % of control
15) CCC(=O)Nc1ccccc1OC: 115 % of control
16) CC1(C)c2ccccc2C(O)(CCl)c2ccccc21: 112 % of control
17) Cc1cc(N(C)C)cc(C)c1N=Nc1cc(Cl)ccc1Cl: 96 % of control
18) CCCCCCCCCCCCCCC(=O)c1ccccc1: 102 % of control
19) N#C/C(=C/c1ccccc1B(O)O)C(=O)O: 93 % of control
20) C#CCON(C(=O)Nc1ccc(Cl)cc1)C(=O)c1ccc(OC)cc1: 86 % of control
21) COc1ccc(C2c3cc(OC)c(OC)cc3CC3C(=O)OCC32)cc1OC (stereo unspecified): 93 % of control
22) Cc1ccc(NC(=O)Nc2cccc3ccccc23)c(C)c1: 95 % of control
23) CC(=O)Nc1ccc2c(c1)Cc1cc(Br)ccc1-2: 100 % of control
24) CNC(=S)NN=C(c1ccccc1)c1ccccc1: 87 % of control
25) O=[N+]([O-])c1cccc(C=Nc2cccc(C(F)(F)F)c2)c1: 110 % of control
26) S=C1NC2CCCc3ccccc3C2O1 (stereo unspecified): 113 % of control
27) [N-]=[N+]=Nc1ccc(-c2nc(N)[nH]c(=O)c2Br)cc1: 86 % of control
28) O=C(NCCCOc1ccc([N+](=O)[O-])cc1)OCc1ccccc1: 107 % of control
29) CCOC12c3ccccc3N(S(C)(=O)=O)C(C)C1C2(Br)Br (stereo unspecified): 102 % of control
30) Cc1ccc(C(=O)/C(=C/c2ccccc2)c2ccccc2)cc1: 93 % of control
31) COc1ccc(OC)c(NC(=O)Nc2nccs2)c1: 100 % of control
32) CC(=O)C(CCS(C)(=O)=O)(CCS(C)(=O)=O)C(=O)O: 94 % of control
33) O=C(NC(CO)CCCO)c1ccc([N+](=O)[O-])cc1 (stereo unspecified): 86 % of control
34) CSCc1ccc(N)cc1: 92 % of control
35) CCCCCCCC(=O)CCCC: 101 % of control
36) Cc1ccc(NC(=S)N2CCC(CCCC3CCN(C(=S)Nc4ccc(C)c(C)c4)CC3)CC2)cc1C: 98 % of control
37) O=C(c1ccccc1)C1C(c2ccccc2)N1C(=O)c1ccccc1 (stereo unspecified): 90 % of control
38) O=C(OCCOCCOCCOC(=O)c1ccccc1)c1ccccc1: 102 % of control
39) COc1c(C)cc(Br)c2c1C(CCN(C)S(=O)(=O)Cc1ccccc1)CCC2 (stereo unspecified): 98 % of control
40) O=C(O)/C=C/S(=O)(=O)Cc1ccccc1: 100 % of control
41) NC1=C(c2ccccc2)C(=O)c2ccccc21: 95 % of control
42) NC(=O)/C=C/c1ccc([N+](=O)[O-])cc1: 100 % of control
43) O=C(NN(c1ccc([N+](=O)[O-])cc1)c1ccc([N+](=O)[O-])cc1)c1ccccc1: 93 % of control
44) COC(=O)CCN(c1ccccc1)S(=O)(=O)c1ccc(C)cc1: 94 % of control
45) CCCCCC(Oc1ccc(Cl)cc1)C(=O)O (stereo unspecified): 98 % of control
46) CC1CC(C)(C)OCO1 (stereo unspecified): 93 % of control
47) CCCCC(CC)CC1CCCCC1O (stereo unspecified): 96 % of control
48) Cc1cc(=O)n(-c2ccc(N)cc2)n1C: 100 % of control
49) CCOc1ccc(/C=N/NS(=O)(=O)c2ccc(C)cc2)cc1: 92 % of control
50) O=[N+]([O-])c1cc([N+](=O)[O-])c(NN(c2ccc(Cl)cc2)c2ccc(Cl)cc2)c([N+](=O)[O-])c1: 96 % of control
51) CC(C)C(NC(=O)c1ccccc1)C(=O)O (stereo unspecified): 113 % of control
